// provenance: ChEMBL document CHEMBL5244278

test: Inhibition of WNT (unknown origin) by luciferase reporter assay; parameters: species or system Homo sapiens
outcomeMeasure: EC50

[[record]]
structurenotation = "Cc1cc(-c2ccc(CNC(=O)c3ccc(-c4cnccn4)cc3)cc2)ccn1"
endpointvalue = "0.7 nM"


Please find the next molecule below.
(Q) Look up and report measured EC50 for this entry: `Cc1cc(-c2ccc(CNC(=O)C34CC(c5cnccn5)(C3)C4)cc2)ccn1`
(A) > 50 nM

----------
tested on: Hepatitis C virus; assay: Antiviral activity against HCV GT4a-genotype assessed as inhibition of viral replication; format: functional, organism-based, Hepacivirus hominis
outcomeMeasure: EC50 (pM)
Field format: number, assumed pM, no unit text.

(Q) // Input: `COC(=O)N[C@H](C(=O)N1CCC[C@H]1c1nc2cc(-c3csc4c(-c5ccc(-c6c[nH]c([C@@H]7CCCN7C(=O)[C@H](NC(=O)OC)c7ccccc7)n6)cc5)csc34)ccc2[nH]1)C(C)C` . Output its EC50 only.
(A) 2
